Reference source for all entries: a melting point compilation (Tetko et al.; mined from patent text by program, amines drawn as free bases though some values may be those of a salt)

Give measured melting point for each item. Keep answers brief.

What the record says about Brc1cccc(OCc2ccc3ccccc3c2)n1 : melting point is 67 to 69 °C

What the record says about CON1CCC2(CC1)NC(=O)C(F)(c1cc(C)ccc1C)C2=O (stereo not given) : melting point is 127 to 130 °C

What the record says about O=S(=O)(c1ccccc1)c1cc[nH]c1-c1ccc(Cl)cc1 : melting point is 158 to 159 °C

What the record says about CC(C)(Oc1ccc(CC(=O)Nc2ccc(C(F)(F)F)cc2)cc1)C(=O)O : melting point is 197 °C

What the record says about CCN1CCC2(CC1)COc1cc3c(cc12)N(C(=O)c1ccc(-c2ccc(C(=O)NNC(C)=O)cc2C)cc1)CC3 : melting point is 154 to 157 °C

---

readout_type: melting point

What the record says about Cn1ncc(/C=C/C(=O)Nc2ccc(CCc3nnco3)cc2)c1-c1ccc(F)cc1 : melting point is 177 to 178 °C

What the record says about O=S(=O)(CC(O)(CO)c1ccccc1)c1ccccc1 (centres undefined) : melting point is 137 °C

What the record says about CC(C)(C)OC(=O)C(C1NC(C(=O)OCc2ccccc2)C2(CCN(c3ccccc3)CC2)S1)N1C(=O)c2ccccc2C1=O (centres undefined) : melting point is 184 to 185 °C

What the record says about Cc1cc(C2=C(Cl)CCN(C(=O)c3ccccc3)C2)no1 : melting point is 86 to 87 °C

What the record says about O=[N+]([O-])c1ccc(O)c(C(=NO)c2ccccc2)c1 : melting point is 193 to 196 °C

What the record says about CC(=O)NCc1ccc(C(=O)CCCN2CCC(c3noc4cc(F)ccc34)CC2)s1 : melting point is 140 to 142 °C

What the record says about COc1ccc(-c2nc(Sc3ccccc3)[nH]c2-c2ccc(OC)cc2)cc1 : melting point is 177 to 179 °C

What the record says about CN(C(=O)c1ccc(Cl)c(Cl)c1)C1CCN(C)C12CCCCC2 (centres undefined) : melting point is 138 to 140 °C

What the record says about CC(c1oc2ccccc2c(=O)c1-c1cccc(F)c1)n1nc(-c2ccc(OCc3ccccc3)cc2)c2c(N)ncnc21 (centres undefined) : melting point is 176 to 178 °C

---

Give measured melting point for each item. Keep answers brief.

What the record says about Cc1cn(CC(Br)C(=O)N(C)C)nc1-c1ccccc1 (stereo not given) : melting point is 104 to 107 °C

What the record says about CC(C)CNCc1cc2cc(NC(=O)c3ccc(C#CC4(O)CCC4)cc3)ccc2n1C : melting point is 168 to 169 °C

What the record says about CCOC(=O)c1cc(C#N)c(C=O)nc1NC : melting point is 137 to 139 °C

What the record says about Cc1nc2n(C)ccn2c(=O)c1CCN1CCC(Nc2nc3ccccc3[nH]2)CC1 : melting point is 230 °C

What the record says about CCOC(=O)c1ncn2c1C(C)(C)Nc1ccccc1-2 : melting point is 145 to 149 °C

What the record says about COC(=O)c1cccc2c1ccn2C : melting point is 194 to 195 °C

What the record says about O=C(O)c1cc(F)ccc1Sc1ccccc1 : melting point is 146 to 148 °C

What the record says about CC(=O)Oc1cccc(-c2csc3nc(C45CC6CC(CC(C6)C4)C5)cn23)c1 : melting point is 199 to 201 °C

What the record says about COC(=O)CCn1nnnc1CC[C@H](NC(=O)OCc1ccccc1)C(=O)OC : melting point is 80 to 81 °C

What the record says about O=C(O)c1cn(C(c2ccccc2)(c2ccccc2)c2ccccc2)c(I)n1 : melting point is 203 to 205 °C

---

readout_type: melting point

What the record says about CCCSc1sc(C(=O)OCC)c2c1C(=O)C(Br)CC2 (stereo not given) : melting point is 93 to 94 °C

What the record says about FC(F)(F)c1ccc(-c2[nH]c(=S)[nH]c2-c2ccc(C(F)(F)F)cc2)cc1 : melting point is 312 to 315 °C

What the record says about Cc1nnc(-c2ccc3occ(-c4ccc(C(=O)N5CCOCC5)c(F)c4)c3c2)o1 : melting point is 167 to 168 °C

What the record says about CSC1CC(=O)N1CC(=O)CCCCCCCc1ccccc1 (stereo not given) : melting point is 48 to 51 °C

What the record says about CC(=O)Oc1cccnc1-n1ccnc1S(=O)Cc1ccccc1N1CCOCC1 (stereo not given) : melting point is 104 to 107 °C

---

Give measured melting point for each item. Keep answers brief.

What the record says about O=C1Nc2ccccc2CC(C(=O)Nc2ccc(Br)cc2)C1=O (stereo not given) : melting point is 226 to 228 °C

What the record says about Cc1c(CN2CCOCC2)sc2c(Br)c3ccccc3c(-c3cc(Br)c(O)c(Br)c3)c12 : melting point is 237 to 240 °C

What the record says about COC(=O)COc1ccc(CCCO)cc1 : melting point is 47 to 48 °C

What the record says about N#Cc1ccc(OCCN2CCN(c3cc(Cl)nnc3Cl)CC2)cc1 : melting point is 175 to 177 °C

What the record says about CC(=O)N[C@@H](CCC(N)=O)C(=O)NC1(C(=O)NCCCCNC(N)=NC#N)Cc2ccccc2C1 : melting point is 122 to 133 °C

---

readout_type: melting point

What the record says about COc1cc(N)c([N+](=O)[O-])cc1I : melting point is 189 °C

What the record says about CCCC1(C)OC(=O)C(OC(C)C)=C1c1ccc(S(C)(=O)=O)cc1 (stereo unspecified) : melting point is 95 to 96 °C

What the record says about Cc1cccc(N2CCN(CCCON3C(=O)c4ccccc4C3=O)CC2)c1 : melting point is 127 to 128 °C

What the record says about CC(C)(C)C1OC1C(O)c1ccccc1 (stereo unspecified) : melting point is 57 to 59 °C

What the record says about COc1ccc(-c2csc(N)n2)cc1OC : melting point is 198 to 201 °C

What the record says about CC(C)(C)c1ccc(S(=O)(=O)CC(=O)N=C=O)cc1 : melting point is 163 °C

---

readout_type: melting point (°C)
Numbers only here, please. The scale is °C.

What the record says about CCOC(=O)C1=C(N)NC2=C(C(=O)CCC2)C1c1nccc2ccccc12 (stereo not given) : melting point is 272

What the record says about Cc1ccc(-c2nc(CCCCCCSC(C)(C)C(=O)O)c(C)o2)cc1 : melting point is 111

What the record says about CC(=O)N1C(=O)C=CC1=O : melting point is 58

What the record says about COc1ccc(S(=O)(=O)C2(C(=O)NO)CCN(CCCOc3ccccc3)CC2)cc1 : melting point is 101

---

readout_type: melting point

What the record says about Nc1nc(-c2cc(Cl)ccc2Cl)nc(N2CC(O)C2)n1 : melting point is 256 to 257 °C

What the record says about CN(C)CCN1C(=O)C(C)(C)SC1c1cccnc1 (centres undefined) : melting point is 67 to 70 °C

What the record says about CCCCc1cc(C(O)=S)cc(N)c1C(=O)c1ccccc1 : melting point is 144 to 145 °C

What the record says about CCN(CC)C(=O)c1ccc2c(c1)C(=C(Cl)Cl)OC(C(Cl)(Cl)Cl)O2 (centres undefined) : melting point is 123 to 124 °C

What the record says about CN(C)C1(c2ccccc2)CCC(CNC(=O)NCCCc2ccccc2)CC1 (centres undefined) : melting point is 100 to 110 °C

What the record says about COCc1cc(C(O)CN(Cc2ccccc2)Cc2ccccc2)ccc1OCc1ccccc1 (centres undefined) : melting point is 52 to 57 °C

What the record says about CC(C)n1c(=O)on(C(=O)n2oc(=O)n(C(C)C)c2=O)c1=O : melting point is 150 °C

What the record says about CS(=O)(=O)Nc1ccc(C(=O)N[C@@H](Cc2ccc(-c3ccccc3C(F)(F)F)cc2)C(=O)O)c(Cl)c1 : melting point is 114 °C

What the record says about COC(=O)C(CCCNC(=N)N[N+](=O)[O-])NC(=O)CCCC(=O)NCc1ccccc1 (single isomer, unassigned; (-)) : melting point is 97 to 99 °C

---

readout_type: melting point

What the record says about CC(=O)C(C)=Cc1cc(O)c(O)c([N+](=O)[O-])c1 : melting point is 139 to 141 °C

What the record says about COc1ccc(C(OCC2OC(n3cnc4c(=O)[nH]c(NC(=O)Cc5ccc(Cl)c(Cl)c5)nc43)CC2O)(c2ccccc2)c2ccc(OC)cc2)cc1 (stereo unspecified) : melting point is 150 to 155 °C

What the record says about Cc1cnc(Cl)c2c3cc(O)ccc3n(C)c12 : melting point is > 260 °C

What the record says about Cc1nn(-c2c(Cl)cc(C(F)(F)F)cc2Cl)nc1Br : melting point is 82 °C

What the record says about O=C(Nc1ncc(C(F)(F)F)o1)C1c2ccc(F)cc2Oc2cc(F)ccc21 : melting point is 249 °C

What the record says about CCOC(=O)c1nc(/C=C/c2ccccc2)ns1 : melting point is 79 to 80 °C
